# Assay Remarks: in vitro
# Test Conditions: African green monkey
Square brackets hold non-standard residues; d marks the D form. Peptide text beside a SMILES is read from it. Nle = CCCC[C@H](N)C(=O)O
Each entry below carries its reported viability at 48 h, 0.001 µM.
Write the number in % without appending the unit.

Compound: CCCC[C@@H](C=O)NC(=O)[C@H](CC(C)C)NC(=O)[C@H](CC(C)C)NC(C)=O [MG101] (Ac-Leu-Leu-[Nle]-aldehyde)
Property Name: viability at 48 h, 0.001 µM
Quantitative Readout: 102

Please turn your attention to the following entry.
Entry under review: "CCCC[C@@H](C=O)NC(=O)[C@H](CC(C)C)NC(=O)OCc1ccccc1" . Reported viability at 48 h, 0.001 µM? 99.3
